# test.name: Lipophilicity, log D of the compound at pH 7.4
# test.context: buffer
property.measured: logD

[
  {
    "structure.as.smiles": "C[C@@H]1CC[C@@H](C(=O)NCc2cc(-c3ccc(C(F)(F)F)nc3)ncn2)N1S(=O)(=O)c1ccc(F)cc1",
    "reported.value": 4.3
  },
  {
    "structure.as.smiles": "C[C@H]1[C@H](F)C[C@@H](C(=O)NCc2cc(-c3cnc(C(F)(F)F)cn3)ncn2)N1S(=O)(=O)c1ccc(F)cc1",
    "reported.value": 2.3
  },
  {
    "structure.as.smiles": "C[C@H]1[C@H](F)C[C@@H](C(=O)NCc2cc(-c3cnc(C(F)(F)F)nc3)ncn2)N1S(=O)(=O)c1ccc(F)cc1",
    "reported.value": 2.5
  },
  {
    "structure.as.smiles": "O=C(NCc1cc(-c2ccc(C(F)(F)F)nc2)ncn1)[C@@H]1CCCCN1S(=O)(=O)c1ccc(F)cc1",
    "reported.value": 3.4
  }
]
